I'd appreciate it if you could supply growth inhibition values for the items below.
Test: NCI Yeast Anticancer Drug Screen. Data for the rad50 strain (AID 155);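 also: 0% = growth of vehicle-only cultures of the same strain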
Conditions: S. cerevisiae rad50 strain growth inhibition; at 50.0 µM; hits give high values
About 79,000 compounds went through this panel and 15% of them were active in at least one assay; those are over-represented in the sample as a whole.
Numeric only. Scale: %

Exam item: # get_value(readout='growth inhibition', item= O=C(NNc1ccccc1)C(O)C(O)C(O)C(O)C(O)C(O)C(O)CO (centres undefined) )
Marked response: 69.1

Exam item: # get_value(readout='growth inhibition', item= O=C(Nc1ccc(Cl)cc1)Nc1nnc2nc(C(C(=O)/C=C/c3ccccc3)c3nc4nnc(NC(=O)Nc5ccc(Cl)cc5)n4[nH]c3=O)c(=O)[nH]n12 )
Marked response: 48.5

Exam item: # get_value(readout='growth inhibition', item= CCCCCCCCCCN(CCCCCCCCCC)C1CC(OC2CC(O)(C(O)CO)Cc3c(O)c4c(c(O)c32)C(=O)c2c(OC)cccc2C4=O)OC(C)C1O (centres undefined) )
Marked response: 43.5

Exam item: # get_value(readout='growth inhibition', item= Cc1ccc(S(=O)(=O)NNC(=O)c2sc(-c3nc(C)c(C(=O)NNS(=O)(=O)c4ccc(C)cc4)s3)nc2C)cc1 )
Marked response: 7.3

* * *

I'd appreciate it if you could supply growth inhibition values for the items below.
Test: NCI Yeast Anticancer Drug Screen. Data for the bub3 strain (AID 167)
Details: S. cerevisiae bub3 mutant strain, at 50.0 µM, hits give high values
This is part of a sample that, as a whole, favours compounds with a hit. Of some 79,000 tested, about 15% had one in any assay.
Numeric only. Scale: %

Exam item: # get_value(readout='growth inhibition', item= O=C(O)C(=O)Cc1ccccc1[N+](=O)[O-] )
Marked response: 20.5

Exam item: # get_value(readout='growth inhibition', item= CC(=O)C1CCCCC1/C=C/[N+](=O)[O-] (stereo unspecified) )
Marked response: 99.5

Exam item: # get_value(readout='growth inhibition', item= O=c1c(-c2ccccc2)c(-c2ccccc2)c1=O )
Marked response: 96.8

Exam item: # get_value(readout='growth inhibition', item= CCCCN(CCCC)CN1C(=O)/C(=C/c2ccc(NC(C)=O)cc2)NC1=S )
Marked response: 72.7

Exam item: # get_value(readout='growth inhibition', item= O=c1cccccc1[O-].O=c1cccccc1[O-].O=c1cccccc1[O-].[Nd+3] )
Marked response: 92.5

Exam item: # get_value(readout='growth inhibition', item= O=C(O)/C=C/c1ccc2c(c1)CCCC2 )
Marked response: 64

Exam item: # get_value(readout='growth inhibition', item= O=[N+]([O-])c1c[nH]c2ncnc(SCc3ccccc3)c12 )
Marked response: 98.7

Exam item: # get_value(readout='growth inhibition', item= C[n+]1c(-c2ccc(/C=N\NC(=O)c3cccc(C(=O)N/N=C/c4ccc(-c5cn6ccccc6[n+]5C)cc4)c3)cc2)cn2ccccc21 )
Marked response: 98

Exam item: # get_value(readout='growth inhibition', item= CC(C)c1ccc(N2C(=O)C=CC2=O)cc1 )
Marked response: 99.5

Exam item: # get_value(readout='growth inhibition', item= O=C(O)c1c(Cl)c(Cl)c(Cl)c(Cl)c1-c1c2ccc(=O)cc-2oc2cc(O)ccc12 )
Marked response: 90.1

Exam item: # get_value(readout='growth inhibition', item= OCC1CC[N-]CC1.OCC1CC[N-]CC1.[Cl][Pt+2]([Cl])([Cl])[Cl] )
Marked response: 96.2
